Biological target: GSK3b (Homo sapiens, UniProt P49841)
Construct: purchased Carna Biosciences
Sequence (P49841 whole entry): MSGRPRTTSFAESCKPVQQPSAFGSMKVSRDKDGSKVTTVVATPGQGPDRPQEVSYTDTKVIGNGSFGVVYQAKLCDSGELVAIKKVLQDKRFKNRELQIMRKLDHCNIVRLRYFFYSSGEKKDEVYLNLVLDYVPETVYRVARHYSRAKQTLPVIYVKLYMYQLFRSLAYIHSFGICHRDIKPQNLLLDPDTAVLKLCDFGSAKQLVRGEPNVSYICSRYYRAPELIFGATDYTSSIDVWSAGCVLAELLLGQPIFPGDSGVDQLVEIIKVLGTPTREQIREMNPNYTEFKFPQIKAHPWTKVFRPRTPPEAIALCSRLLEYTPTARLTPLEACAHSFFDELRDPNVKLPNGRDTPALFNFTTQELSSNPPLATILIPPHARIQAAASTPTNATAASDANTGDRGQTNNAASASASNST
Assay: LabChip (Caliper) kinase assay, GSK3b
Type: biochemical
Conditions: compound at 100 nM, read-out: remaining kinase activity (in %) / percentage of inhibition
Recorded inhibition at 0.1 µM values for a group of compounds are listed next.
Write down the numeric answer in % and omit the unit.

Compound	Tested Target	inhibition at 0.1 µM / %
C[C@H]1O[C@@H](n2c3ccccc3c3c4c(c5c6ccccc6[nH]c5c32)CNC4=O)C[C@@H](O)[C@@H]1O [formula (XV), N^13-1′-β-D-olivosyl-k252c]	GSK3b (Homo sapiens, UniProt P49841)	0
C[C@@H]1O[C@@H](n2c3ccccc3c3c4c(c5c6ccccc6[nH]c5c32)CNC4=O)C[C@@H](O)[C@H]1O [formula (XIV), N^13-1′-β-L-digitoxosyl-k252c]	GSK3b (Homo sapiens, UniProt P49841)	7

Reported inhibition at 0.1 µM (GSK3b (Homo sapiens, UniProt P49841)) for entry C[C@@H]1O[C@@H](n2c3ccccc3c3c4c(c5c6ccccc6[nH]c5c32)C(=O)NC4=O)[C@H](O)[C@H](O)[C@H]1O [formula (III), N^13-1′-β-L-rhamnosylarcyriaflavin] is 72

Reported inhibition at 0.1 µM (GSK3b (Homo sapiens, UniProt P49841)) for entry C[C@H]1O[C@@H](n2c3ccccc3c3c4c(c5c6ccccc6[nH]c5c32)C(=O)NC4=O)C[C@@H](O)[C@@H]1O [formula (VI), N^13-1′-β-D-olivosylarcyriaflavin] is 69

Reported inhibition at 0.1 µM (GSK3b (Homo sapiens, UniProt P49841)) for entry C[C@@H]1O[C@@H](n2c3ccccc3c3c4c(c5c6ccccc6[nH]c5c32)CNC4=O)C[C@H](O)[C@H]1O [formula (XIII), N^13-1′-β-L-olivosyl-k252c] is 9

----------
Target: UniProt:O14920
Sequence (O14920 whole entry, species assumed): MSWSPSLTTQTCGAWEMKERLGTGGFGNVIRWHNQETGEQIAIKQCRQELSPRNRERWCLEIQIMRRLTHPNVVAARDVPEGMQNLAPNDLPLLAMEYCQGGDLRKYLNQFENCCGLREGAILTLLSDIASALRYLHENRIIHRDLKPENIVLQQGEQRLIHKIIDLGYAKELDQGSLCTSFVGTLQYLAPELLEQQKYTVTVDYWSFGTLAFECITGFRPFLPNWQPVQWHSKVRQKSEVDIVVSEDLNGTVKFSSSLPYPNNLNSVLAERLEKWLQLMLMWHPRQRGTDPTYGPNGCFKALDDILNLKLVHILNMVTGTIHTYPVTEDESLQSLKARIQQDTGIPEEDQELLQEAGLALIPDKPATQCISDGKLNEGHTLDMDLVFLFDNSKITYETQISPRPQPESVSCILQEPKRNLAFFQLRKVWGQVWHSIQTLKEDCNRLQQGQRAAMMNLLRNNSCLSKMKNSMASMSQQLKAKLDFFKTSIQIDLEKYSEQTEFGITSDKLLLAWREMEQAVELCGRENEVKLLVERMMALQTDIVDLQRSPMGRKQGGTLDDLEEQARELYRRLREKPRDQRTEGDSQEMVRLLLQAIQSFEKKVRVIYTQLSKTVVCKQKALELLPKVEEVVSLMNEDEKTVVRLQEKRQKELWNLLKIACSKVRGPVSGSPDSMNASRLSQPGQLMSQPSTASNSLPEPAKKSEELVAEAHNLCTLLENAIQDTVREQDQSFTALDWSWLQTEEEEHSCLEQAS
Experiment: LabChip (Caliper) kinase assay, Ikkb
Assay type: biochemical
Conditions: compound at 100 nM, read-out: remaining kinase activity (in %) / percentage of inhibition
Recorded inhibition at 0.1 µM values for a group of molecules are listed next.
Write down the numeric answer in % and omit the unit.

These solved cases illustrate the format of a correct answer.
Molecule	U	inhibition at 0.1 µM
C[C@H]1O[C@@H](n2c3ccccc3c3c4c(c5c6ccccc6[nH]c5c32)C(=O)NC4=O)C[C@@H](O)[C@@H]1O	%	50
C[C@@H]1O[C@@H](n2c3ccccc3c3c4c(c5c6ccccc6[nH]c5c32)C(=O)NC4=O)C[C@@H](O)[C@H]1O	%	76
C[C@@H]1O[C@@H](n2c3ccccc3c3c4c(c5c6ccccc6[nH]c5c32)C(=O)NC4=O)C[C@H](O)[C@H]1O	%	60
C[C@@H]1O[C@@H](n2c3ccccc3c3c4c(c5c6ccccc6[nH]c5c32)CNC4=O)C[C@@H](O)[C@H]1O [formula (XIV), N^13-1′-β-L-digitoxosyl-k252c]	%	24

Consider the record given below.
Noted for `C[C@@H]1O[C@@H](n2c3ccccc3c3c4c(c5c6ccccc6[nH]c5c32)C(=O)NC4=O)[C@H](O)[C@H](O)[C@H]1O` : its inhibition at 0.1 µM reads 32

----------
Molecular target: SYK (Homo sapiens)
Construct: purchased Carna Biosciences
Assay: LabChip (Caliper) kinase assay, SYK
Type: biochemical
Conditions: compound at 10 nM, read-out: remaining kinase activity (in %) / percentage of inhibition
Recorded inhibition at 0.01 µM values for a group of molecules are listed next.
Could you kindly put the unit after your number?

These solved cases illustrate the format of a correct answer.
Molecule	Value Observed
C[C@@H]1O[C@@H](n2c3ccccc3c3c4c(c5c6ccccc6[nH]c5c32)C(=O)NC4=O)C[C@H](O)[C@H]1O	11%
C[C@@H]1O[C@@H](n2c3ccccc3c3c4c(c5c6ccccc6[nH]c5c32)CNC4=O)C[C@H](O)[C@H]1O [formula (XIII), N^13-1′-β-L-olivosyl-k252c]	12%
C[C@@H]1O[C@@H](n2c3ccccc3c3c4c(c5c6ccccc6[nH]c5c32)CNC4=O)[C@H](O)[C@H](O)[C@H]1O [formula (XII), N^13-1′-β-L-rhamnosyl-k252c]	8%
C[C@@H]1O[C@@H](n2c3ccccc3c3c4c(c5c6ccccc6[nH]c5c32)C(=O)NC4=O)[C@H](O)[C@H](O)[C@H]1O	2%
C[C@H]1O[C@@H](n2c3ccccc3c3c4c(c5c6ccccc6[nH]c5c32)CNC4=O)C[C@@H](O)[C@@H]1O [formula (XV), N^13-1′-β-D-olivosyl-k252c]	7%

Noted for `C[C@@H]1O[C@@H](n2c3ccccc3c3c4c(c5c6ccccc6[nH]c5c32)C(=O)NC4=O)C[C@@H](O)[C@H]1O` : its inhibition at 0.01 µM reads 13%

Noted for C[C@@H]1O[C@@H](n2c3ccccc3c3c4c(c5c6ccccc6[nH]c5c32)CNC4=O)C[C@@H](O)[C@H]1O [formula (XIV), N^13-1′-β-L-digitoxosyl-k252c] : its inhibition at 0.01 µM reads -1%

Noted for `C[C@H]1O[C@@H](n2c3ccccc3c3c4c(c5c6ccccc6[nH]c5c32)C(=O)NC4=O)C[C@@H](O)[C@@H]1O` : its inhibition at 0.01 µM reads 5%

----------
Recorded inhibition at 0.1 µM values for a group of compounds are listed next.
Target: GSK3b (Homo sapiens, UniProt P49841)
Construct: purchased Carna Biosciences
Assay: LabChip (Caliper) kinase assay, GSK3b
Type: biochemical
Conditions: compound at 100 nM, read-out: remaining kinase activity (in %) / percentage of inhibition

These solved cases illustrate the format of a correct answer.
Compound	Tested Target	inhibition at 0.1 µM
C[C@@H]1O[C@@H](n2c3ccccc3c3c4c(c5c6ccccc6[nH]c5c32)C(=O)NC4=O)C[C@H](O)[C@H]1O	GSK3b (Homo sapiens, UniProt P49841)	69%
C[C@@H]1O[C@@H](n2c3ccccc3c3c4c(c5c6ccccc6[nH]c5c32)CNC4=O)[C@H](O)[C@H](O)[C@H]1O [formula (XII), N^13-1′-β-L-rhamnosyl-k252c]	GSK3b (Homo sapiens, UniProt P49841)	8%

Consider the record given below.
Reported inhibition at 0.1 µM (GSK3b (Homo sapiens, UniProt P49841)) for entry `C[C@@H]1O[C@@H](n2c3ccccc3c3c4c(c5c6ccccc6[nH]c5c32)C(=O)NC4=O)C[C@@H](O)[C@H]1O` is 81%

----------
Target: KDR (Homo sapiens, UniProt P35968)
Construct: purchased Carna Biosciences
Sequence (P35968 20-1356): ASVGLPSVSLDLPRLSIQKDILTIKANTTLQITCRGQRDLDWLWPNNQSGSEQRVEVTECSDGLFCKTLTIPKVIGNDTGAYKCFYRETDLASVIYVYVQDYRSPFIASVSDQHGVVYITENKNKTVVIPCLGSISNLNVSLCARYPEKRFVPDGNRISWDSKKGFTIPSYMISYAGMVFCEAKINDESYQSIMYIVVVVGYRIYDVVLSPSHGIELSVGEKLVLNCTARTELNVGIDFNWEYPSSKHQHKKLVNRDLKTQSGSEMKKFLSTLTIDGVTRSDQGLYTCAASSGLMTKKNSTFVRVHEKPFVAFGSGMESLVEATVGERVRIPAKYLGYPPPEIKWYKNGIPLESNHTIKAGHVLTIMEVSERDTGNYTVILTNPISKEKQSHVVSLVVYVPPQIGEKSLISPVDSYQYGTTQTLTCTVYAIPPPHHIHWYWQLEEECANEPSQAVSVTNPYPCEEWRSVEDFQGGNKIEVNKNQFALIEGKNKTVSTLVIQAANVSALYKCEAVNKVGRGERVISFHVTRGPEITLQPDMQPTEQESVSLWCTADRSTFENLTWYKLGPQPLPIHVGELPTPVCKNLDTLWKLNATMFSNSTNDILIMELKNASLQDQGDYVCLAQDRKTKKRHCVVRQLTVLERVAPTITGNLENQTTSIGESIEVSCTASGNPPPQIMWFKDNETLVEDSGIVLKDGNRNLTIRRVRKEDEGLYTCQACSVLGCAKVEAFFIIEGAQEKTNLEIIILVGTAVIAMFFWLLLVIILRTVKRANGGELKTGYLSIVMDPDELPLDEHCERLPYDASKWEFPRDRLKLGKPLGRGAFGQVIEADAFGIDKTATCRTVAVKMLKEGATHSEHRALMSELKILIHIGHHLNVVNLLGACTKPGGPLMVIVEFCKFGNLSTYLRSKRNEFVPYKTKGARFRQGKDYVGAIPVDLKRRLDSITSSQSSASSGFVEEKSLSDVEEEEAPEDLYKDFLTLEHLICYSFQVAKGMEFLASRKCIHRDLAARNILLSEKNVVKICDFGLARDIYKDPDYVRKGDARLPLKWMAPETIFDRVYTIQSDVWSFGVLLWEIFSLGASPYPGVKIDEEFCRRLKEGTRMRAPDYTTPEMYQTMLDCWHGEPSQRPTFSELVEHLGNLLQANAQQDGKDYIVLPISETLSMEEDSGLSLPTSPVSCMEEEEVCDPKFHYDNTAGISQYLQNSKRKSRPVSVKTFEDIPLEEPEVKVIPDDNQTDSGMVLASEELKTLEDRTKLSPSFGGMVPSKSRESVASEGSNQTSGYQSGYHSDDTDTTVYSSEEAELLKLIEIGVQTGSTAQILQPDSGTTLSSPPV
Assay: LabChip (Caliper) kinase assay, KDR
Format: biochemical
Conditions: compound at 10 nM, read-out: remaining kinase activity (in %) / percentage of inhibition
Recorded inhibition at 0.01 µM values for a group of compounds are listed next.
Write down the numeric answer in % and omit the unit.

These solved cases illustrate the format of a correct answer.
Compound	Experimental Endpoint	U	Value Observed
C[C@@H]1O[C@@H](n2c3ccccc3c3c4c(c5c6ccccc6[nH]c5c32)C(=O)NC4=O)C[C@H](O)[C@H]1O	inhibition at 0.01 µM	%	21
C[C@@H]1O[C@@H](n2c3ccccc3c3c4c(c5c6ccccc6[nH]c5c32)C(=O)NC4=O)C[C@@H](O)[C@H]1O	inhibition at 0.01 µM	%	28

Consider the record given below.
Noted for C[C@@H]1O[C@@H](n2c3ccccc3c3c4c(c5c6ccccc6[nH]c5c32)CNC4=O)[C@H](O)[C@H](O)[C@H]1O [formula (XII), N^13-1′-β-L-rhamnosyl-k252c] : its inhibition at 0.01 µM reads -1

----------
Recorded inhibition at 0.1 µM values for a group of compounds are listed next.
Target: UniProt:O60674
Sequence (O60674 whole entry, species assumed): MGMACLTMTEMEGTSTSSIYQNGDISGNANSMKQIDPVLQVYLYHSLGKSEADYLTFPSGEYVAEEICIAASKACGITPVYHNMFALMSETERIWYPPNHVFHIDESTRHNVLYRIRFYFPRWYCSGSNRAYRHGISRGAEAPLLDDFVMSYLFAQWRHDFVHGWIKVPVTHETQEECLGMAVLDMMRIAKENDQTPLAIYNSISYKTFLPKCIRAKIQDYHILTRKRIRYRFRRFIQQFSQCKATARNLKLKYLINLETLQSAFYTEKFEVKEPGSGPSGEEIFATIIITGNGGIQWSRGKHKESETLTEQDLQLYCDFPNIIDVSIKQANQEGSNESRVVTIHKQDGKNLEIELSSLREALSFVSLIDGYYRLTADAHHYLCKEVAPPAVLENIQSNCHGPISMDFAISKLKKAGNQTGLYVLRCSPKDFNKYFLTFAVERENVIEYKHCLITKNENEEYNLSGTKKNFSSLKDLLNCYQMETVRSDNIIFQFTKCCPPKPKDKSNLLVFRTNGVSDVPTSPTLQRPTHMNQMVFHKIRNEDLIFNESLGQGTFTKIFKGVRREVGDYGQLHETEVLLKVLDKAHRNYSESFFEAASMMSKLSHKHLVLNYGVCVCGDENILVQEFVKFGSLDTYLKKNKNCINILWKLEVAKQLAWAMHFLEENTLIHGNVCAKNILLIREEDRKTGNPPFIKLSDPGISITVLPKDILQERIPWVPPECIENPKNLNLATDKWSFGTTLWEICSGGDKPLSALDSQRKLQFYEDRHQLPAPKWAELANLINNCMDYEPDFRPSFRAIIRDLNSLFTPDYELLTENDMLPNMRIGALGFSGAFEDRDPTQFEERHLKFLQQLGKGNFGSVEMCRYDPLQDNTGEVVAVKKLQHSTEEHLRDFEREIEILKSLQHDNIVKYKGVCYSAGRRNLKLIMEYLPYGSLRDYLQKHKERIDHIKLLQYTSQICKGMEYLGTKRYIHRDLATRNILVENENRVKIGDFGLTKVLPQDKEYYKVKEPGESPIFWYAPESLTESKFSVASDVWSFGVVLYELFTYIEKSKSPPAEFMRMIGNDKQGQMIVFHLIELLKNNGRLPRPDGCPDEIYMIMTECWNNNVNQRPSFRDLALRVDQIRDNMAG
Assay: LabChip (Caliper) kinase assay, JAK2
Type: biochemical
Settings: JAK2; compound at 100 nM; read-out: remaining kinase activity (in %) / percentage of inhibition
Write down the numeric answer in % and omit the unit.

Compound	Tested Target	inhibition at 0.1 µM, %
C[C@@H]1O[C@@H](n2c3ccccc3c3c4c(c5c6ccccc6[nH]c5c32)CNC4=O)C[C@@H](O)[C@H]1O [formula (XIV), N^13-1′-β-L-digitoxosyl-k252c]	UniProt:O60674	25
C[C@@H]1O[C@@H](n2c3ccccc3c3c4c(c5c6ccccc6[nH]c5c32)C(=O)NC4=O)C[C@@H](O)[C@H]1O	UniProt:O60674	65
C[C@@H]1O[C@@H](n2c3ccccc3c3c4c(c5c6ccccc6[nH]c5c32)CNC4=O)[C@H](O)[C@H](O)[C@H]1O [formula (XII), N^13-1′-β-L-rhamnosyl-k252c]	UniProt:O60674	39
C[C@H]1O[C@@H](n2c3ccccc3c3c4c(c5c6ccccc6[nH]c5c32)CNC4=O)C[C@@H](O)[C@@H]1O [formula (XV), N^13-1′-β-D-olivosyl-k252c]	UniProt:O60674	89

Consider the record given below.
Noted for C[C@@H]1O[C@@H](n2c3ccccc3c3c4c(c5c6ccccc6[nH]c5c32)CNC4=O)C[C@H](O)[C@H]1O [formula (XIII), N^13-1′-β-L-olivosyl-k252c] : its inhibition at 0.1 µM reads 79
